Origin of values: ChEMBL document CHEMBL5584240

System: Ebolavirus
assayExplanation: Antiviral activity against recombinant Ebola virus Mayinga expressing GFP infected in human primary macrophages assessed as reduction in infectivity pretreated for 1 hr followed by viral infection measured after 24 to 48 hrs by imaging analysis
Type: functional, organism-based
conditionDetails: Orthoebolavirus, Primary macrophage
pEC50: −log10 of the molar value.
quantity: pEC50

1) COc1cc2c(OCCCN3CC4CCC3CN4C)c3c(c(-c4ccc5c(c4)OCO5)c2cc1OC)C(=O)OC3 (centres undefined) | 8.70
2) COc1cc2c(OC3CCOC3)c3c(c(-c4ccc5c(c4)OCO5)c2cc1OC)C(=O)OC3 (centres undefined) | 6.97
3) COc1cc2c(OCCN3CCN(C)CC3)c3c(c(-c4ccc5c(c4)OCO5)c2cc1OC)C(=O)OC3 | 7.52
4) COc1cc2c(OCC(O)CN3CCN(C)CC3)c3c(c(-c4ccc5c(c4)OCO5)c2cc1OC)C(=O)OC3 (centres undefined) | 7.48
